Target: Beta-secretase 2 (Homo sapiens, UniProt Q9Y5Z0)
Sequence (Q9Y5Z0 whole entry): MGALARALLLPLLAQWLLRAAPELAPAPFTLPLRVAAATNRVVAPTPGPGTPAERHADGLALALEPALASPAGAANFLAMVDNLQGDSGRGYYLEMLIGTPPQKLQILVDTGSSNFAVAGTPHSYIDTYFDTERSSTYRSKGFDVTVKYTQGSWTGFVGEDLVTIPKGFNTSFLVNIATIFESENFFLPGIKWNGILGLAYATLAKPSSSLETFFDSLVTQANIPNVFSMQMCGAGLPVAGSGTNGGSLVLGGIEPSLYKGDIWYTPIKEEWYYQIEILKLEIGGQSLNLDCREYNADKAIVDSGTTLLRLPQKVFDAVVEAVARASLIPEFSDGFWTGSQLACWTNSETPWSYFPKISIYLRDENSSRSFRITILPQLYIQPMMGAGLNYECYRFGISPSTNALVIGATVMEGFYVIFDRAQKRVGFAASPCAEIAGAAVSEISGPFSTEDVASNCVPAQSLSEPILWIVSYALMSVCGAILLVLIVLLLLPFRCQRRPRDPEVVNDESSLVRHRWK
Test: In summary, a peptide is designed that is cleaved by the protease. The peptide is labelled with dabcyl at the N terminus and Lucifer Yellow at the C-terminus, such that for an intact peptide the Lucifer Yellow fluorescence is quenched by the dabcyl. When the peptide is cut by BACE2, the quenching is removed and a fluorescent signal is generated.
Test Readout: IC50 (µM)

* CC1(C)OCC(N)=N[C@](C)(c2cc(Nc3cncc(C(F)(F)F)c3)ccc2F)C1(F)F | 3.89
